Molecular target: human TLR7 (Homo sapiens)
Sequence (Q9NYK1 27-1049): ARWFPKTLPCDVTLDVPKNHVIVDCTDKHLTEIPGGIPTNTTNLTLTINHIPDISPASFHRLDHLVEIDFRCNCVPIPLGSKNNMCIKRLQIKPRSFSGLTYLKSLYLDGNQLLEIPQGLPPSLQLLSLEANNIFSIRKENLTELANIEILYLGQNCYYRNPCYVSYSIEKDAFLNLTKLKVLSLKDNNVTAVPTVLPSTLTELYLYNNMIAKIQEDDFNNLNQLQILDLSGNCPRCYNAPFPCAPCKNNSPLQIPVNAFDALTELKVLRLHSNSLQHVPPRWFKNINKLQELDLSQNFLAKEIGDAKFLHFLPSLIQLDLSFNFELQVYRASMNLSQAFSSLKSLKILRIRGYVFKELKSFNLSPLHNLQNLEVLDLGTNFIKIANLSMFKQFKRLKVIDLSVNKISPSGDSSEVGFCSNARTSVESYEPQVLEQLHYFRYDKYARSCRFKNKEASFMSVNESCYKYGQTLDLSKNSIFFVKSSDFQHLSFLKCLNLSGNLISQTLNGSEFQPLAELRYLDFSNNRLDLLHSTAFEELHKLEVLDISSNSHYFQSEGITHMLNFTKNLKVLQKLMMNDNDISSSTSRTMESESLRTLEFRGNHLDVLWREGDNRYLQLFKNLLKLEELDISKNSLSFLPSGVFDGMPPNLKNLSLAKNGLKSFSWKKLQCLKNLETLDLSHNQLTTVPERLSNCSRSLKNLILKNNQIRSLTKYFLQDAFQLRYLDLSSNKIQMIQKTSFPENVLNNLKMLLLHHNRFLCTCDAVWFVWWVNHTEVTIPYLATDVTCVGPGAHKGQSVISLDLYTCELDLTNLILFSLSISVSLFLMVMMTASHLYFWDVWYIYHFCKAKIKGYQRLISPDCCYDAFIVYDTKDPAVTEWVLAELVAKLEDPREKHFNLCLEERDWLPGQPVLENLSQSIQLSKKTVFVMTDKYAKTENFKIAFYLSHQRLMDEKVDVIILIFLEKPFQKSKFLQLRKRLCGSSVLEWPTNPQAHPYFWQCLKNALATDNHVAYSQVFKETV
Assay: TLR7 inhibition reporter assay (HEK-Blue SEAP)
Settings: HEK-Blue cells overexpressing human TLR7, gardiquimod 7.5 μM, 22 hour incubation
Counter-ions that a name gives are not always drawn.
Hi! Just check whether IC50 is below 10 nM. Below gives 1 (yes), equal or above gives 0 (no).

Lookup: Hello, I'm reviewing records and need to know if IC50 of `COc1cc(-c2cc3[nH]c(=O)n([C@H]4CC[C@@H](NCC(C)C)CC4)c3cc2C)cn2ncnc12` is below 10 nM. Could you check?
Found: 0 (no)

Lookup: Hello, I'm reviewing records and need to know if IC50 of COc1cc(-c2cc3[nH]c(=O)n(C4CCC(N5CC(F)(F)C5)CC4)c3cc2C(C)C)cn2ncnc12 (single isomer, unassigned) [Example 297] is below 10 nM. Could you check?
Found: 0 (no)

Lookup: Hello, I'm reviewing records and need to know if IC50 of `COc1cc(-c2cc3[nH]c(=O)n([C@@H]4CCCN(CC5CCC5)C4)c3cc2C(C)C)cn2ncnc12` is below 10 nM. Could you check?
Found: 1 (yes)

Lookup: Hello, I'm reviewing records and need to know if IC50 of COc1cc(-c2cc3[nH]c(=O)n([C@H]4CCCN(CC5CCOC5)C4)c3cc2C(C)C)cn2ncnc12 (some centres unmarked) is below 10 nM. Could you check?
Found: 0 (no)

Lookup: Hello, I'm reviewing records and need to know if IC50 of `CCc1cc2c(cc1-c1cc(OC)c3ncnn3c1)[nH]c(=O)n2[C@@H]1CCCN(CCC(C)(C)C)C1` is below 10 nM. Could you check?
Found: 1 (yes)

Lookup: Hello, I'm reviewing records and need to know if IC50 of `CCN1CCC(n2c(=O)[nH]c3cc(-c4cc(OC)c5ncnn5c4)c(C)cc32)CC1` is below 10 nM. Could you check?
Found: 0 (no)

Lookup: Hello, I'm reviewing records and need to know if IC50 of `COc1cc(-c2cc3[nH]c(=O)n(C4CCN(C(C)C)CC4)c3cc2C)cn2ncnc12` is below 10 nM. Could you check?
Found: 0 (no)

Lookup: Hello, I'm reviewing records and need to know if IC50 of `COc1cc(-c2cc3[nH]c(=O)n([C@H]4CC[C@@H](NC5CCOCC5)CC4)c3cc2C(C)C)cn2ncnc12` is below 10 nM. Could you check?
Found: 1 (yes)

Lookup: Hello, I'm reviewing records and need to know if IC50 of `COc1cc(-c2cc3[nH]c(=O)n(C4CCN(CC(C)C)CC4)c3cc2C(C)C)cn2ncnc12` is below 10 nM. Could you check?
Found: 0 (no)

Lookup: Hello, I'm reviewing records and need to know if IC50 of `Cc1cc2c(cc1-c1cc(C)c3ncnn3c1)[nH]c(=O)n2[C@@H]1CCCN(C2COC2)C1` is below 10 nM. Could you check?
Found: 0 (no)

Lookup: Hello, I'm reviewing records and need to know if IC50 of `Cc1c(-c2cc3[nH]c(=O)n([C@H]4CC[C@@H](NCC(C)(C)C)CC4)c3cc2C(C)C)cn2ncnc2c1C` is below 10 nM. Could you check?
Found: 1 (yes)

Lookup: Hello, I'm reviewing records and need to know if IC50 of COc1cc(-c2cc3[nH]c(=O)n(C4CCC(N5CC[C@H](F)C5)CC4)c3cc2C(C)C)cn2ncnc12 (some centres unmarked) [Example 287] is below 10 nM. Could you check?
Found: 1 (yes)

Lookup: Hello, I'm reviewing records and need to know if IC50 of `Cc1c(-c2cc3[nH]c(=O)n([C@@H]4CCCNC4)c3cc2C(C)C)cn2ncnc2c1C` is below 10 nM. Could you check?
Found: 1 (yes)

Lookup: Hello, I'm reviewing records and need to know if IC50 of `COc1cc(-c2cc3[nH]c(=O)n([C@@H]4CCCN(C5COC5)C4)c3cc2C)cn2ncnc12` is below 10 nM. Could you check?
Found: 0 (no)

Lookup: Hello, I'm reviewing records and need to know if IC50 of `COc1cc(-c2cc3[nH]c(=O)n([C@@H]4CCCN(C5COC5)C4)c3cc2C(C)C)cn2ncnc12` is below 10 nM. Could you check?
Found: 0 (no)

Lookup: Hello, I'm reviewing records and need to know if IC50 of COc1cc(-c2cc3[nH]c(=O)n(C4CCNCC4)c3cc2C)cn2ncnc12 [1 E, TFA] is below 10 nM. Could you check?
Found: 0 (no)

Lookup: Hello, I'm reviewing records and need to know if IC50 of `CCN1CCC(n2c(=O)[nH]c3cc(-c4cc(C)c5ncnn5c4)cc(C)c32)CC1` is below 10 nM. Could you check?
Found: 0 (no)

Lookup: Hello, I'm reviewing records and need to know if IC50 of COc1cc(-c2cc3[nH]c(=O)n(C4CCC(N5C[C@@H](F)[C@@H](F)C5)CC4)c3cc2C(C)C)cn2ncnc12 (single isomer, unassigned) [Example 293] is below 10 nM. Could you check?
Found: 0 (no)

Lookup: Hello, I'm reviewing records and need to know if IC50 of `Cc1cc(-c2cc(C)c3ncnn3c2)cc2[nH]c(=O)n(C3CCNCC3)c12` is below 10 nM. Could you check?
Found: 0 (no)

Lookup: Hello, I'm reviewing records and need to know if IC50 of `CCCN1CCC[C@@H](n2c(=O)[nH]c3cc(-c4cc(C)c5ncnn5c4)c(C)cc32)C1` is below 10 nM. Could you check?
Found: 0 (no)

Lookup: Hello, I'm reviewing records and need to know if IC50 of `Cc1cc(-c2cc(C)c3ncnn3c2)cc2[nH]c(=O)n(C3CCN(CC(=O)N(C)C)CC3)c12` is below 10 nM. Could you check?
Found: 0 (no)

Lookup: Hello, I'm reviewing records and need to know if IC50 of COc1cc(-c2cc3[nH]c(=O)n(C4CCC(N5CC6(CCOCC6)C5)CC4)c3cc2C(C)C)cn2ncnc12 (single isomer, unassigned) [Example 236] is below 10 nM. Could you check?
Found: 1 (yes)

Lookup: Hello, I'm reviewing records and need to know if IC50 of `Cc1cc2c(cc1-c1cc(C)c3ncnn3c1)[nH]c(=O)n2[C@@H]1CCCN(CCCC(F)(F)F)C1` is below 10 nM. Could you check?
Found: 0 (no)

Lookup: Hello, I'm reviewing records and need to know if IC50 of `Cc1cc2c(cc1-c1cc(C)c3ncnn3c1)[nH]c(=O)n2[C@@H]1CCCN(C(=O)CN(C)C)C1` is below 10 nM. Could you check?
Found: 0 (no)

Lookup: Hello, I'm reviewing records and need to know if IC50 of CCC(C)N1CCC[C@@H](n2c(=O)[nH]c3cc(-c4cc(C)c5ncnn5c4)c(C)cc32)C1 (some centres unmarked) is below 10 nM. Could you check?
Found: 0 (no)

Lookup: Hello, I'm reviewing records and need to know if IC50 of Cc1cc2c(cc1-c1cc(C)c3ncnn3c1)[nH]c(=O)n2C1CCN(CC(=O)N(C)C)CC1 [Example 91] is below 10 nM. Could you check?
Found: 0 (no)

Lookup: Hello, I'm reviewing records and need to know if IC50 of `COc1cc(-c2cc3[nH]c(=O)n(C4CCN(CC(=O)N(C)C)CC4)c3cc2C)cn2ncnc12` is below 10 nM. Could you check?
Found: 0 (no)

Lookup: Hello, I'm reviewing records and need to know if IC50 of COc1cc(-c2cc3[nH]c(=O)n(C4CCC(N(C)CCC(F)(F)F)CC4)c3cc2C(C)C)cn2ncnc12 (single isomer, unassigned) [Example 249] is below 10 nM. Could you check?
Found: 1 (yes)

Lookup: Hello, I'm reviewing records and need to know if IC50 of `Cc1c(-c2cc3[nH]c(=O)n([C@H]4CC[C@@H](NC(C)C)CC4)c3cc2C(C)C)cn2ncnc2c1C` is below 10 nM. Could you check?
Found: 1 (yes)

Source: patent US12187723B2
